Listing of entries alongside the reported Kd.
Biological target: CYP51fx (sterol 14α-demethylase) (Methylococcus capsulatus, UniProt Q603T8)
Sequence (Q603T8 1-551): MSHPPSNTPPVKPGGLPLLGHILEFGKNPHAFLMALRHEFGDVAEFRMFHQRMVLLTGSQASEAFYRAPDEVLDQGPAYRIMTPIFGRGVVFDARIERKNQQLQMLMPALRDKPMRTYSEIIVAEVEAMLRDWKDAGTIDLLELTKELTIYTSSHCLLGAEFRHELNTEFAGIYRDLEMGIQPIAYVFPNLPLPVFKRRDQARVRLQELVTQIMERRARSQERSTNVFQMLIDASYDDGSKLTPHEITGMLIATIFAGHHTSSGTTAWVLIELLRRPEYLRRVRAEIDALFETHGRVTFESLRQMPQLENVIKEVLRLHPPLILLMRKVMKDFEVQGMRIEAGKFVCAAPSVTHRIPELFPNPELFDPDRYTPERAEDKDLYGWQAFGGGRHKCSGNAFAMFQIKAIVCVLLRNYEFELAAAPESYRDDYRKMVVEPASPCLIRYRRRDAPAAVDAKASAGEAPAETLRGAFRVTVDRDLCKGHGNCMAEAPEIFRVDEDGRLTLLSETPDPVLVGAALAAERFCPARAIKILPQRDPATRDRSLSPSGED
Test: UV-visible spectral titration
Type: binding
All answers are understood in nM, so give the number only.

CC(C)=CCC[C@@H](C)[C@H]1CC[C@@]2(C)[C@@H]3CC[C@H]4C(C)(C)[C@@H](O)CC[C@]4(C)C3=CC[C@]12C [parkeol] | 260

Let us move to another entry and its Kd.
input: Return reported Kd; argument: CC(C)=CCC[C@@H](C)[C@H]1CC[C@@]2(C)[C@@H]3CC[C@H]4C(C)(C)[C@@H](O)CC[C@@]45C[C@@]35CC[C@]12C [cycloartenol]
output: 460

---

Listing of entries alongside the reported Kd.
molecular target: CYP51fx (sterol 14α-demethylase) (Methylococcus capsulatus); assay: UV-visible spectral titration; assay type: binding
All answers are understood in µM, so give the number only.

CC(C)=CCC[C@@H](C)[C@H]1CC[C@@]2(C)C3=C(CC[C@]12C)[C@@]1(C)CC[C@H](O)C(C)(C)[C@@H]1CC3 | 0.094

input: Return reported Kd; argument: C=C(CC[C@@H](C)[C@H]1CC[C@@]2(C)C3=C(CC[C@]12C)[C@@]1(C)CC[C@H](O)C(C)(C)[C@@H]1CC3)C(C)C
output: 0.048

---

biological target: CYP51fx (sterol 14α-demethylase) (Methylococcus capsulatus, UniProt Q603T8); test: UV-visible spectral titration; assay type: binding
Measured endpoint: Kd
Answer with the number, then the unit.

input: Fill in the recorded Kd for this compound, with CYP51fx (sterol 14α-demethylase) (Methylococcus capsulatus, UniProt Q603T8) as test system: CC(C)=CCC[C@@H](C)[C@H]1CC[C@@]2(C)[C@@H]3CC=C4[C@@H](CC[C@H](O)C4(C)C)[C@]3(C)CC[C@]12C
output: 670 nM
